# Tested on: KB-V-1 cells
# EXPERIMENTAL DETAILS: cells
# CONDITION CONTEXT: Homo sapiens, KB-V1, read-out: ID50 KB-V-1
Where a name gives a salt, the structure may show the parent alone.
Would you mind telling me the reported pIC50 of each entry?
In plain terms, pIC50 is the concentration in mol/L turned into minus its base-10 logarithm.

# query: pIC50 of entry COc1cccc2c1C(=O)c1c(O)c3c(c(O)c1C2=O)C[C@@](O)(C(=O)CO)C[C@@H]3O[C@H]1C[C@H](N)[C@H](O)[C@H](C)O1 3.52

What measured pIC50 goes with COc1cccc2c1C(=O)c1c(O)c3c(c(O)c1C2=O)C[C@@](O)(C(C)=O)C[C@@H]3O[C@H]1C[C@H](O)[C@H](NCc2ccc(CN[C@@H]3[C@H](C)O[C@@H](O[C@H]4C[C@](O)(C(C)=O)Cc5c(O)c6c(c(O)c54)C(=O)c4c(OC)cccc4C6=O)C[C@@H]3O)cc2)[C@H](C)O1 [WP652, hydrochloride] ? 5.15
